Sourced from patent US20200353078A1

- ASSAY_TARGET: ST2 on human umbilical vein endothelial cells (human) (UniProt Q01638)
- Sequence (Q01638 19-556): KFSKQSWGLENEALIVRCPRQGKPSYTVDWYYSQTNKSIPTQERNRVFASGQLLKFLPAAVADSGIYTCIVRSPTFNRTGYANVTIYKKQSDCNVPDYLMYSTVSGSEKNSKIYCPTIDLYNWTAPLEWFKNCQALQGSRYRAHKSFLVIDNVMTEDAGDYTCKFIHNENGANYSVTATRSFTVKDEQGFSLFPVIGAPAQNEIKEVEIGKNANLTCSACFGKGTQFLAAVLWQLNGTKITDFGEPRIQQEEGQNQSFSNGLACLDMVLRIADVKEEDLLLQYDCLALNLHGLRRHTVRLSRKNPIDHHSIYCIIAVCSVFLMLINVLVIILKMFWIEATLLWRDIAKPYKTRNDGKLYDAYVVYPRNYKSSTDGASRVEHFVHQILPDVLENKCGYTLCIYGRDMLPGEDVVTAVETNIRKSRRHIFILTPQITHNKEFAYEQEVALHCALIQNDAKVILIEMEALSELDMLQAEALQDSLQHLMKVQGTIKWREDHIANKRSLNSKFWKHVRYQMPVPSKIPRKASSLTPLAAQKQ
- METHOD: cell-based or functional assay
// reported IC50 (nM) Untreated, HUVEC NFkB translocation assay for each item listed
Give just the numeric value; nM need not be written.

BINDER	VAL
IL33-10 (ligand) MHHHHHHHHHHAAGLNDIFEAQKIEWHEAAIEGRSITGISPITEYLASLSTYNDQSITFALEDESYEIYVEDLKKDEKKDKVLLSYYESQHPSNESGDGVDGKMLMVTLSPTKDFWLHANNKEHSVELHKCEKPLPDQAFFVLHNMHSNSVSFESKTDPGVFIGVKDNHLALIKVDSSENLCTENILFKLSET	0.61
IL33-02 (ligand) MHHHHHHHHHHAAGLNDIFEAQKIEWHEAAIEGRSITGISPITEYLASLSTYNDQSITFALEDESYEIYVEDLKKDEKKDKVLLSYYESQHPSNESGDGVDGKMLMVTLSPTKDFWLHANNKEHSVELHKSEKPLPDQAFFVLHNMHSNCVSFECKTDPGVFIGVKDNHLALIKVDSSENLCTENILFKLSET	0.19

stdin: Given IL33-15 (ligand) MHHHHHHHHHHAAGLNDIFEAQKIEWHEAAIEGRSITGISPITEYLASLSTYNDQSITFALEDESYEIYVEDLKKDEKKDKVLLSYYESQHPSNESGDGVDGKMLMVTLSPTKDFWLHANNKEHSVELHKCEKPLPDQAFFVLHNMHSNSVSFESKTDPGVFIGVKDNHLALIKVDSSENLSTENILFKLSET , respond with its IC50 (nM) Untreated, HUVEC NFkB translocation assay.
stdout: 0.12
